Hello, the source for this data is the supplement of paper PMC10567573, in case you need it.

Kindly supply the reported protein stability index values for the records listed here.
B1: MED27 (parent)
chain: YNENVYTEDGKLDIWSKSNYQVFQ

variants of: B1; experiment: protein stability index of a GFP-peptide fusion (GPS, HEK-293T) (PSI 1-6); higher = more stable; details: c terminus: a fixed tail appended;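 further: lentivirally expressed fusions sorted by FACS into six bins by GFP to DsRed ratio, PSI derived from sequencing read proportions per bin multiplied by bin number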
Answer with the value's number alone.

input: Suppose we examine the variant `F23C` ; what protein stability index value has been reported?
output: 2.06

input: Suppose we examine the variant `V22T` ; what protein stability index value has been reported?
output: 2.45

input: Suppose we examine the variant `I14P` ; what protein stability index value has been reported?
output: 2.29

input: Suppose we examine the variant `E3A` ; what protein stability index value has been reported?
output: 1.88

input: Suppose we examine the variant `Q24C` ; what protein stability index value has been reported?
output: 2.3

input: Suppose we examine the variant `W15H` ; what protein stability index value has been reported?
output: 3.85

input: Suppose we examine the variant `G10S` ; what protein stability index value has been reported?
output: 2.23

input: Suppose we examine the variant `G10A` ; what protein stability index value has been reported?
output: 2.3

input: Suppose we examine the variant `T7I` ; what protein stability index value has been reported?
output: 1.72

input: Suppose we examine the variant `W15C` ; what protein stability index value has been reported?
output: 3.74

input: Suppose we examine the variant `S18I` ; what protein stability index value has been reported?
output: 1.96

input: Suppose we examine the variant `G10R` ; what protein stability index value has been reported?
output: 2.21

input: Suppose we examine the variant `V5T` ; what protein stability index value has been reported?
output: 2.67

input: Suppose we examine the variant `E8G` ; what protein stability index value has been reported?
output: 1.64

input: Suppose we examine the variant `L12R` ; what protein stability index value has been reported?
output: 2.01

input: Suppose we examine the variant `N19V` ; what protein stability index value has been reported?
output: 1.58

input: Suppose we examine the variant `D13Q` ; what protein stability index value has been reported?
output: 2.05

input: Suppose we examine the variant `Q21R` ; what protein stability index value has been reported?
output: 2.23

input: Suppose we examine the variant `T7L` ; what protein stability index value has been reported?
output: 1.8

input: Suppose we examine the variant `N4P` ; what protein stability index value has been reported?
output: 1.96

input: Suppose we examine the variant `E3S` ; what protein stability index value has been reported?
output: 1.76

input: Suppose we examine the variant `F23H` ; what protein stability index value has been reported?
output: 2.87

input: Suppose we examine the variant `N2Q` ; what protein stability index value has been reported?
output: 2.33

input: Suppose we examine the variant `E3G` ; what protein stability index value has been reported?
output: 2.34

input: Suppose we examine the variant `Y1L` ; what protein stability index value has been reported?
output: 3.2

input: Suppose we examine the variant `Y6K` ; what protein stability index value has been reported?
output: 2.34

input: Suppose we examine the variant `Y20Q` ; what protein stability index value has been reported?
output: 2.94

input: Suppose we examine the variant `T7D` ; what protein stability index value has been reported?
output: 2.7

input: Suppose we examine the variant `K11A` ; what protein stability index value has been reported?
output: 2.27

input: Suppose we examine the variant `N19T` ; what protein stability index value has been reported?
output: 1.78

input: Suppose we examine the variant `K17Y` ; what protein stability index value has been reported?
output: 1.98

input: Suppose we examine the variant `V22P` ; what protein stability index value has been reported?
output: 2.66

input: Suppose we examine the variant `Y20E` ; what protein stability index value has been reported?
output: 3.2

input: Suppose we examine the variant `V5S` ; what protein stability index value has been reported?
output: 2.34
